B1: Pistol ribozyme (parent)
chain: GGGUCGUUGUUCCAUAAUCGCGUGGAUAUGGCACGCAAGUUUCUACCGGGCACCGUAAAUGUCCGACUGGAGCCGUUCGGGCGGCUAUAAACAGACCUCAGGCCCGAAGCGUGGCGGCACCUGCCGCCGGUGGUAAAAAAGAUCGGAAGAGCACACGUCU

Variants of: B1
Assay: aptazyme ON/OFF ratio, guanine; higher = stronger switching; co-transcriptional cleavage with and without guanine
Reported Metric: aptazyme ON/OFF ratio
No unit in the answer, please; the number alone is enough.

For reference, reported aptazyme ON/OFF ratio for U7G U8A U10G U11A C12U stands at 1.23

Memo: U7A U8A G9C U10G U11G C13G , reported aptazyme ON/OFF ratio: 1.18

Field aptazyme ON/OFF ratio (entry U7A U8G G9A U10C U11G C12U C13U ) reads 1.23

Recorded aptazyme ON/OFF ratio (variant U7G U8G G9U U10C U11G C13G ): 1.21

Measured aptazyme ON/OFF ratio, U7G U8C G9A U10G C13G : 1.19

Please fill in: aptazyme ON/OFF ratio reported for U7A U8C U10C U11G C12A C13G = 1.28

Given item G9U U10A U11A C13G , the value recorded as its aptazyme ON/OFF ratio is 1.17

Sample U7C U8C G9U U10G C12U C13U ; aptazyme ON/OFF ratio observed: 1.21

Looking up U7C U8G U10G C12G C13U , I found its aptazyme ON/OFF ratio recorded as 1.29

Memo: U7G G9U U10G U11A C12G C13G , reported aptazyme ON/OFF ratio: 1.17

Recorded result, U7C U8A G9C U10G U11G C12A C13A , aptazyme ON/OFF ratio: 1.09

Field aptazyme ON/OFF ratio (entry U10C C12G C13A ) reads 1.24

Note to self: aptazyme ON/OFF ratio recorded for U7A U8C G9U U10A U11A C12G C13A was 1.15

U7G U8A G9A C12U C13U yielded aptazyme ON/OFF ratio of 1.08

aptazyme ON/OFF ratio measured on U7A U8C G9A U10C U11G C13U = 1.46

The measured aptazyme ON/OFF ratio associated with U7C G9U U10C U11G C12A reads 1.09

Please fill in: aptazyme ON/OFF ratio reported for U7C G9A U11A C12G C13U = 1.27

aptazyme ON/OFF ratio recorded for this variant, U7G G9A U10C U11A C12A C13U , is 1.09

Short answer for U7C U10C U11C C12G C13U : aptazyme ON/OFF ratio was 1.24

Lab note: measured aptazyme ON/OFF ratio of U7A U8C G9A U10A C12U C13A was 1.11

Reported aptazyme ON/OFF ratio for U7C U10A C12U C13A was 1.19

// sample U7G G9C U10C U11C C12A C13A , its aptazyme ON/OFF ratio was 1.02

Sure, the documented aptazyme ON/OFF ratio for G9A U10A U11G C12G C13G is 1.2

For record U7A U8C G9U U10G U11G C13U the listed aptazyme ON/OFF ratio is 1.17

Short answer for U7A U8G G9A U10G C12A C13A : aptazyme ON/OFF ratio was 1.39

The variant identified as U7C G9U U10G U11G C12A C13U registered its aptazyme ON/OFF ratio at 1.17

response.value for U7G U8G G9A U10A U11A C13A (field: aptazyme ON/OFF ratio) = 1.16

get_value(item= U7G U8A G9U U10G C13A , readout=aptazyme ON/OFF ratio) returns 1.35

Per the record, U8C G9C U11G C12U C13G has aptazyme ON/OFF ratio of 1.11

Form: variant = U7A U10A U11C C13G ; aptazyme ON/OFF ratio = 1.03

G9U U10C U11A C12A C13A has a reported aptazyme ON/OFF ratio of 1.53

Looking up U7G U8G U10C U11C C12A C13G , I see its aptazyme ON/OFF ratio listed as 1.23

Query U7G U8C G9A U10C U11A yields aptazyme ON/OFF ratio of 3.52

U7G U8G G9U C12U yielded aptazyme ON/OFF ratio of 1.66

Lab note: measured aptazyme ON/OFF ratio of U7C G9A U10C C12U C13G was 1.16

Measured aptazyme ON/OFF ratio of U7A U8G G9A U10G U11G C13U : 1.22

Record summary for U7A U8A U10C U11A C12U C13G : reported aptazyme ON/OFF ratio = 1.1

aptazyme ON/OFF ratio recorded for this variant, U7C U8G G9U U10G U11G C12A C13U , is 1.19

Per the record, U7C G9C U10G C12U C13A has aptazyme ON/OFF ratio of 1.11

Value of aptazyme ON/OFF ratio reported for the variant U7G U8A G9C U10C U11A C12U C13G is 1.04

response.value for U8C G9U U10G U11A C12A (field: aptazyme ON/OFF ratio) = 1.56

// field: aptazyme ON/OFF ratio; key: U7G U8C G9A U10A C12A C13U ; value = 1.2

aptazyme ON/OFF ratio recorded for this variant, U7C U8C G9U U10C U11C C12G C13A , is 1.05

Short answer for U7C U8A G9U U10A U11C C12G C13U : aptazyme ON/OFF ratio was 1.25

Briefly, aptazyme ON/OFF ratio measured for U7A U8A G9U C12U C13U : 1.22

GET /value?item= G9A U11G C12U C13A &field=aptazyme ON/OFF ratio returns 1.35

# aptazyme ON/OFF ratio of U8A G9U U10C U11A C12G C13A = 1.15

// sample U8G G9U U10A U11C C12G C13A , its aptazyme ON/OFF ratio was 1.08

Documented aptazyme ON/OFF ratio of U7G U8A G9U U10C U11C C12A C13U : 1.09

Quick note, aptazyme ON/OFF ratio for U7C G9C U11A C13U landed at 1.02

The value of aptazyme ON/OFF ratio measured for the variant U7A U8G G9C U10A C12G C13G turned out to be 1.28

So, U7G G9C U10A U11A C12A C13U ? Its aptazyme ON/OFF ratio was 1.29

aptazyme ON/OFF ratio reported for this variant U7C U8A U11A C12A : 1.28

Noted for U7A U8G G9C U10C U11G C12U C13U : its aptazyme ON/OFF ratio reads 1.41

For record U8G G9A U10C U11G C12G C13A the listed aptazyme ON/OFF ratio is 1.34

Lab note: measured aptazyme ON/OFF ratio of U7C U8G G9C U11C was 1.18

// aptazyme ON/OFF ratio lookup, variant = U7C U8C G9A U11G C12G C13G , result: 1.11

Just so you know, measured aptazyme ON/OFF ratio for U7C U8C G9C U10A C12A C13G came out at 1.14

// U8A U10G U11A : aptazyme ON/OFF ratio value = 1.09

The variant listed as U7A U8C G9C U10C C12G shows aptazyme ON/OFF ratio equal to 1.03

Looking up U8C G9U U10A U11G C12G C13U , I see its aptazyme ON/OFF ratio listed as 1.14

The measured aptazyme ON/OFF ratio associated with U8G G9U U10A U11G C12A C13U reads 1.12

Entry U8G G9U U10G U11G C12A C13G ; aptazyme ON/OFF ratio = 1.08

// U7G U8G U10A U11A C13G : aptazyme ON/OFF ratio value = 1.21

Entry U7G U8A G9C U10G U11C C12A — recorded aptazyme ON/OFF ratio = 1.04

The variant identified as U7C U8C G9A U11C C12A C13A registered its aptazyme ON/OFF ratio at 1.29

Just so you know, measured aptazyme ON/OFF ratio for U7C U8C G9A C12U came out at 1.72

Lab note: U7A U8C G9A U10C U11G C12U gave aptazyme ON/OFF ratio of 1.23

Looking up U8A G9A U10A C12U C13G , I found its aptazyme ON/OFF ratio recorded as 1.24

aptazyme ON/OFF ratio reading for U7A U8G G9A U10C U11C C12A C13G : 1.22

GET /value?item= U8C U10G U11G C12U C13U &field=aptazyme ON/OFF ratio returns 1.23

Value of measured aptazyme ON/OFF ratio for the entry U8A G9C U11A C12G C13A : 1.12

Form field aptazyme ON/OFF ratio, entry U8G G9C C13G : 1.03

The reported value for U7A U8G U10G C13A in terms of aptazyme ON/OFF ratio is 1.26

Reported aptazyme ON/OFF ratio ( U7C U8A G9C U10C U11G C12G C13G ) = 1.11

// aptazyme ON/OFF ratio lookup, variant = U7C U8C G9U U10C U11A C12U C13U , result: 1.09

So for U7C G9A U10G U11C C12U , the logged aptazyme ON/OFF ratio turned out to be 1.18

Recorded result, U7A U8C G9C U10C U11C C12U C13U , aptazyme ON/OFF ratio: 0.988

Field aptazyme ON/OFF ratio (entry U8G G9C C13A ) reads 1.04

What the record says about U7C U8C G9U U10A U11A C12A C13U : aptazyme ON/OFF ratio is 1.1

The reported aptazyme ON/OFF ratio of the variant U7C U10C U11C C13G was 1.14

Note to self: aptazyme ON/OFF ratio recorded for U7A U8A G9U U11G C12U C13G was 1.17

Sample U8G G9A U10G U11A C12A C13U ; aptazyme ON/OFF ratio observed: 1.48

Record U7G U8G G9C , field aptazyme ON/OFF ratio: 4.59

Reported aptazyme ON/OFF ratio ( U7C U8G U10A U11C C13G ) = 1.03

Per the record, U7C U8C U10G C12U C13A has aptazyme ON/OFF ratio of 1.08

The recorded aptazyme ON/OFF ratio for entry U7A U8A U10A U11A C13U equals 1.11

The recorded aptazyme ON/OFF ratio for entry U7G U8G U10C U11A C13U equals 1.47

The variant identified as U7G G9C U10G U11C C12A C13G registered its aptazyme ON/OFF ratio at 1.23

response.value for U7C U8A G9U C12A C13A (field: aptazyme ON/OFF ratio) = 1.14

aptazyme ON/OFF ratio measured on U7C U8G U10G U11G C12A C13U = 1.26
